Reported values of melting point for individual entries
readout.type: melting point

compound="Cc1cc(C)cc(/C=C(\\C(=O)c2ccc(Cl)cc2)S(=O)(=O)Cc2ccc(Cl)cc2)c1 [Example 385]" readout_type="melting point" reported_measurement="146 to 152 °C"
compound="COc1cc(/C=C(\\C(=O)c2ccc(Cl)cc2)S(=O)(=O)Cc2ccccc2Cl)cc(OC)c1 [Example 359]" readout_type="melting point" reported_measurement="133 to 138 °C"
compound="CSc1ccc(/C=C(\\C(=O)c2ccc(Cl)cc2)S(=O)(=O)Cc2ccc(C)cc2)cc1 [Example 437]" readout_type="melting point" reported_measurement="140 to 152 °C"
compound="COc1ccc(/C=C(\\C(=O)c2ccc(Br)cc2)S(=O)(=O)Cc2ccc(F)cc2)cc1 [Example 415]" readout_type="melting point" reported_measurement="121 to 123 °C"
compound="O=C(/C(=C\\c1ccc(O)c([N+](=O)[O-])c1)S(=O)(=O)Cc1ccc(Br)cc1)c1ccc(Br)cc1 [Example 374]" readout_type="melting point" reported_measurement="110 to 112 °C"
compound="Cc1ccc(CS(=O)(=O)/C(=C/c2ccc(Br)cc2)C(=O)c2ccc(Cl)cc2)cc1 [Example 433]" readout_type="melting point" reported_measurement="160 to 165 °C"
compound="Cc1ccc(CS(=O)(=O)/C(=C/c2ccc(C)s2)C(=O)c2ccc(Cl)cc2)cc1 [Example 440]" readout_type="melting point" reported_measurement="171 to 178 °C"
compound="COc1ccccc1/C=C(\\C(=O)c1ccc([N+](=O)[O-])cc1)S(=O)(=O)Cc1ccc(Cl)cc1 [Example 384]" readout_type="melting point" reported_measurement="136 to 141 °C"
compound="Cc1ccsc1/C=C(\\C(=O)c1ccc([N+](=O)[O-])cc1)S(=O)(=O)Cc1ccc(Cl)cc1 [Example 389]" readout_type="melting point" reported_measurement="174 to 179 °C"
compound="COc1ccc(C(=O)/C(=C\\c2ccc(Br)cc2)S(=O)(=O)Cc2ccc(Br)cc2)cc1 [Example 371]" readout_type="melting point" reported_measurement="146 to 148 °C"
compound="O=C(/C(=C\\c1ccc(O)cc1)S(=O)(=O)Cc1ccc(Cl)c(Cl)c1)c1ccc(Cl)cc1 [Example 366]" readout_type="melting point" reported_measurement="195 to 198 °C"
compound="O=C(/C(=C\\c1ccc(Br)cc1)S(=O)(=O)Cc1ccc(Cl)cc1)c1ccc(Cl)cc1 [Example 392]" readout_type="melting point" reported_measurement="100 to 103 °C"
compound="COc1ccc(/C=C(\\C(=O)c2ccc(Br)cc2)S(=O)(=O)Cc2ccc(Cl)cc2)c(O)c1 [Example 382]" readout_type="melting point" reported_measurement="72 to 78 °C"
compound="O=C(/C(=C\\c1ccc(I)cc1)Sc1ccc(Br)cc1)c1ccc(Br)cc1 [Example 45]" readout_type="melting point" reported_measurement="128 to 130 °C"
compound="Cc1ccc(C)c(/C=C(\\C(=O)c2ccc(Br)cc2)S(=O)(=O)Cc2ccc(F)cc2)c1 [Example 401]" readout_type="melting point" reported_measurement="167 to 173 °C"
compound="Cc1ccsc1/C=C(\\C(=O)c1ccc(Cl)cc1)S(=O)(=O)Cc1ccc(F)cc1 [Example 407]" readout_type="melting point" reported_measurement="146 to 158 °C"
compound="O=C(/C(=C\\c1ccc(Br)cc1)S(=O)(=O)Cc1ccc(I)cc1)c1ccc(I)cc1 [Example 419]" readout_type="melting point" reported_measurement="180 to 182 °C"
compound="Cc1ccc(CS(=O)(=O)/C(=C/c2c(O)cc(O)cc2O)C(=O)c2ccc(Cl)cc2)cc1 [Example 424]" readout_type="melting point" reported_measurement="167 to 180 °C"
compound="O=C(/C(=C\\c1ccc(O)c([N+](=O)[O-])c1)S(=O)(=O)Cc1ccccc1Cl)c1ccc(Cl)cc1 [Example 362]" readout_type="melting point" reported_measurement="222 to 226 °C"
compound="Cc1ccc(C)c(/C=C(\\C(=O)c2ccc(Cl)cc2)S(=O)(=O)Cc2ccc(Cl)cc2)c1 [Example 380]" readout_type="melting point" reported_measurement="129 to 136 °C"
compound="O=C(/C(=C\\c1ccc(Br)cc1)S(=O)(=O)Cc1ccc(I)cc1)c1ccc(Br)cc1 [Example 418]" readout_type="melting point" reported_measurement="168 to 170 °C"
compound="CCOc1ccc(/C=C(\\C(=O)c2ccc(Cl)cc2)S(=O)(=O)Cc2ccc(C)cc2)cc1OC [Example 435]" readout_type="melting point" reported_measurement="65 to 72 °C"
compound="COc1ccccc1/C=C(\\C(=O)c1ccc(Br)cc1)S(=O)(=O)Cc1ccc(F)cc1 [Example 404]" readout_type="melting point" reported_measurement="145 to 151 °C"
compound="COc1ccccc1/C=C(\\C(=O)c1ccc(Cl)cc1)S(=O)(=O)Cc1ccc(Cl)c(Cl)c1 [Example 364]" readout_type="melting point" reported_measurement="154 to 157 °C"
compound="COc1cc(OC)c(/C=C(\\C(=O)c2ccc([N+](=O)[O-])cc2)S(=O)(=O)Cc2ccc(Cl)cc2)c(OC)c1 [Example 379]" readout_type="melting point" reported_measurement="62 to 64 °C"
compound="O=C(/C(=C\\c1ccccc1OCc1ccccc1)S(=O)(=O)Cc1ccccc1Cl)c1ccc(Cl)cc1 [Example 358]" readout_type="melting point" reported_measurement="137 to 148 °C"
compound="COc1ccc(/C=C(\\C(=O)c2ccc(Br)cc2)S(=O)(=O)Cc2ccc(Cl)cc2)cc1 [Example 395]" readout_type="melting point" reported_measurement="152 to 155 °C"
compound="COc1ccccc1/C=C(\\C(=O)c1ccc(Cl)cc1)S(=O)(=O)Cc1ccc(Cl)cc1 [Example 383]" readout_type="melting point" reported_measurement="135 to 142 °C"
compound="Cc1cc(C)cc(/C=C(\\C(=O)c2ccc(Br)cc2)S(=O)(=O)Cc2ccc(F)cc2)c1 [Example 405]" readout_type="melting point" reported_measurement="140 to 143 °C"
compound="Cc1ccc(CS(=O)(=O)/C(=C/c2cccc(Cl)c2Cl)C(=O)c2ccc(Cl)cc2)cc1 [Example 423]" readout_type="melting point" reported_measurement="162 to 165 °C"
compound="Cc1ccc(/C=C(\\C(=O)c2ccc(Br)cc2)S(=O)(=O)Cc2ccc(F)cc2)s1 [Example 416]" readout_type="melting point" reported_measurement="156 to 161 °C"
